# test.name: Determination of the LD50 by i.v. administration
# Type: in vivo
# condition.parameters: mouse, in vivo, iv, mice, male; range in parentheses
reported.metric: LD50 (mg/kg)
Use mg/kg as the unit, but write only the number.

Query: Give the reported value of LD50 for this record: Cl.Cl.Clc1ccc(SCCCNC(Cn2ccnc2)c2ccc(Cl)cc2Cl)cc1 (stereo not shown)
Result: 42

----------
The entries below are paired with their reported MIC Asp.fu..
# System: Aspergillus fumigatus
# test.name: In vitro determination of minimum inhibitory concentration (MIC), serial dilution
# Assay type: cell-based
# condition.parameters: 20160 min, pH 6

Here's what some known entries look like.
CN(CCCSCc1ccc(Cl)cc1)C(Cn1ccnc1)c1ccc(Cl)cc1Cl (stereo not shown): 25,0 μg/ml
COc1ccc(SCCNC(Cn2ccnc2)c2ccc(Cl)cc2Cl)cc1 (stereo not shown): 12,5 μg/ml
Clc1ccc(SCCCNC(Cn2ccnc2)c2ccc(Cl)cc2Cl)cc1 (stereo not shown): 3,12 μg/ml
Cl.Cl.Clc1ccc(SCCCNC(Cn2ccnc2)c2ccc(Cl)cc2Cl)cc1 (stereo not shown): 0,78 μg/ml
Clc1ccc(C(Cn2cncn2)NCCCOc2c(Cl)cccc2Cl)c(Cl)c1 (stereo not shown): 3,12 μg/ml
Fc1ccc(OCCCNC(Cn2ccnc2)c2ccc(Cl)cc2Cl)cc1 (stereo not shown): 0,78 μg/ml
Clc1ccc(C(Cn2ccnc2)NCCCSc2c(Cl)cccc2Cl)c(Cl)c1 (stereo not shown): 12,5 μg/ml
Clc1ccc(SCCCCCNC(Cn2ccnc2)c2ccc(Cl)cc2Cl)cc1 (stereo not shown): 6,25 μg/ml
Clc1ccc(C(Cn2ccnc2)NCCCSc2ccc3ccccc3c2)c(Cl)c1 (stereo not shown): 0,78 μg/ml
Clc1ccc(SCCCNC(Cn2ccnc2)c2ccc(Br)cc2)cc1 (stereo not shown): 6,25 μg/ml

Turning to the following compound.
Query: Output MIC Asp.fu. of Clc1ccc(C(Cn2cncn2)NCCSc2ccc(Br)cc2)c(Cl)c1 (stereo not shown)
Result: 100 µg/mL

----------
# System: Trichophyton rubrum
Reported values of MIC for individual entries
Numbers only; they are read as µg/mL.

Observe how each entry below is paired with its result.
Clc1ccc(SCCCNC(Cn2ccnc2)c2ccc(Cl)cc2Cl)cc1 (stereo not shown): 0.19
Clc1ccc(SCCNC(Cn2cncn2)c2ccc(Cl)cc2Cl)cc1 (stereo not shown): 3.12
Fc1ccc(OCCCNC(Cn2ccnc2)c2ccc(Cl)cc2Cl)cc1 (stereo not shown): 1.56
Clc1ccc(SCCCNC(Cn2ccnc2)c2ccc(Br)cc2)cc1 (stereo not shown): 3.12
Clc1ccc(OCCNC(Cn2cncn2)c2ccc(Cl)cc2Cl)cc1 (stereo not shown): 6.25
Clc1ccc(C(Cn2cncn2)NCCCOc2c(Cl)cccc2Cl)c(Cl)c1 (stereo not shown): 3.12

Query: Please respond with reported MIC (system Trichophyton rubrum) for Clc1ccc(C(Cn2ccnc2)NCCSc2ccc3ccccc3c2)c(Cl)c1 (stereo not shown) .
Result: 3.12

Query: Specify MIC for Clc1ccc(C(Cn2cncn2)NCCSc2ccc(Br)cc2)c(Cl)c1 (stereo not shown) , system Trichophyton rubrum.
Result: 6.25

Query: GET MIC | system: Trichophyton rubrum | item: COc1ccc(SCCNC(Cn2ccnc2)c2ccc(Cl)cc2Cl)cc1 (stereo not shown)
Result: 6.25

Query: Under Trichophyton rubrum: report MIC of Clc1ccc(C(Cn2ccnc2)NCCCSc2c(Cl)cccc2Cl)c(Cl)c1 (stereo not shown) .
Result: 3.12
